# PROTOCOL: Binding affinity against Glucagon receptor using [125I]glucagon
MEASURE_NAME: Ki

- SMILES_RECORD: "N[C@H]1CCCC[C@@H]1NC(=O)c1c2c(c3c4c(ncnc14)-c1ccccc1C3=O)N[C@@H]1CCCC[C@H]1N2"
  MEASURE_NAME: "Ki"
  VALUE_OBSERVED: "> 10 µM"

---

# PROTOCOL: Binding affinity to Glp1 receptor using [125I]Glp-1 as radioligand
MEASURE_NAME: Ki

- SMILES_RECORD: "N[C@H]1CCCC[C@@H]1NC(=O)c1c2c(c3c4c(ncnc14)-c1ccccc1C3=O)N[C@@H]1CCCC[C@H]1N2"
  VALUE_OBSERVED: "> 10 µM"

---

# TARGET_SYSTEM: Corticotropin-releasing factor receptor 2 (Mus musculus, UniProt Q60748)
# Sequence (Q60748 whole entry): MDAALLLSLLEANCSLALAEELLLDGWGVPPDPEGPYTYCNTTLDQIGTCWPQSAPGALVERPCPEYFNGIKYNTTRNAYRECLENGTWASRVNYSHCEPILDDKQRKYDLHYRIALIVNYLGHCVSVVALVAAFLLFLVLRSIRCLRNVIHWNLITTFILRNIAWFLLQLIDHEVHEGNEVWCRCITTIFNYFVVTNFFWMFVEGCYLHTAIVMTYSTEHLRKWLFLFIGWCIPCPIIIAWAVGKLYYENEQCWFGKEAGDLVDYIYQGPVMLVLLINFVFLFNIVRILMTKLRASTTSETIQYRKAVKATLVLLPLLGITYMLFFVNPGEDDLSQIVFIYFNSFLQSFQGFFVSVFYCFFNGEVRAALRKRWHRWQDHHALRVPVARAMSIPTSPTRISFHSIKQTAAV
# PROTOCOL: Antagonistic activity against [125I]-Tyr-ovine CRF binding to Corticotropin releasing factor receptor 2 beta
pKi: −log10 of the molar value.
Entries and their measured pKi follow.

- SMILES_RECORD: "NCCNC(=O)c1ccc2c3c(ncnc13)-c1ccccc1C2=O"
  pKi: "< 5.00"
- SMILES_RECORD: "N[C@H]1CCCC[C@H]1NC(=O)c1ccc2c3c(ncnc13)-c1ccccc1C2=O"
  pKi: "< 5.00"
- SMILES_RECORD: "N[C@@H]1CCCC[C@H]1NC(=O)c1ccc2c3c(ncnc13)-c1ccccc1C2=O"
  pKi: "< 5.00"
- SMILES_RECORD: "CN(C)C(=O)c1ccc2c3c(ncnc13)-c1ccccc1C2=O"
  pKi: "< 5.00"
